Recorded measurements of Minimum inhibitory concentrations (MICs), one per entry
System: Bifidobacterium pseudocatenulatum KCTC3223
Test Details: Antibiotics sensitivity, agar dilution MIC
Assay type: cell-based
Test Settings: strain KCTC3223; Table 5
Response body: numeric value in μl/Ml, unit text excluded.

For orientation, consider the following solved cases.
CN[C@H](CC(C)C)C(=O)N[C@H]1C(=O)N[C@@H](CC(N)=O)C(=O)N[C@H]2C(=O)N[C@H]3C(=O)N[C@H](C(=O)N[C@H](C(=O)O)c4cc(O)cc(O)c4-c4cc3ccc4O)[C@H](O)c3ccc(c(Cl)c3)Oc3cc2cc(c3O[C@@H]2O[C@H](CO)[C@@H](O)[C@H](O)[C@H]2O[C@H]2C[C@](C)(N)[C@H](O)[C@H](C)O2)Oc2ccc(cc2Cl)[C@H]1O [VAN, vancomycin]
4
CC(=O)NC[C@H]1CN(c2ccc(N3CCOCC3)c(F)c2)C(=O)O1 [LNZ, linezolid]
8
CCCCCCCCCC(=O)N[C@@H](Cc1c[nH]c2ccccc12)C(=O)N[C@H](CC(N)=O)C(=O)N[C@@H](CC(=O)O)C(=O)N[C@@H]1C(=O)NCC(=O)N[C@@H](CCCN)C(=O)N[C@@H](CC(=O)O)C(=O)N[C@H](C)C(=O)N[C@@H](CC(=O)O)C(=O)NCC(=O)N[C@H](CO)C(=O)N[C@@H]([C@H](C)CC(=O)O)C(=O)N[C@@H](CC(=O)c2ccccc2N)C(=O)O[C@@H]1C [DAP, daptomycin]
16
CN(C)c1cc(NC(=O)CNC(C)(C)C)c(O)c2c1C[C@H]1C[C@H]3[C@H](N(C)C)C(O)=C(C(N)=O)C(=O)[C@@]3(O)C(O)=C1C2=O [TIG, tigecyclin]
0.5
[H]/N=C(/N)N[C@H]1[C@H](O)[C@@H](O)[C@H](O[C@@H]2O[C@@H](C)[C@](O)(C=O)[C@H]2O[C@@H]2O[C@@H](CO)[C@H](O)[C@@H](O)[C@@H]2NC)[C@@H](N/C(N)=N\[H])[C@@H]1O [STR, streptomycin]
128

Let us examine a further case.
# lookup: Minimum inhibitory concentrations (MICs) of CCC[C@@H]1C[C@@H](C(=O)N[C@@H]([C@H]2O[C@H](SC)[C@H](O)[C@@H](O)[C@H]2O)[C@H](C)Cl)N(C)C1 [CLI, clindamycin]
8

* * *

System: Bifidobacterium longum KCTC3128
Test Details: Antibiotics sensitivity, agar dilution MIC
Format: cell-based
Test Settings: strain KCTC3128; Table 5
Property Measured: Minimum inhibitory concentrations (MICs)

For orientation, consider the following solved cases.
CC(=O)NC[C@H]1CN(c2ccc(N3CCOCC3)c(F)c2)C(=O)O1
8 μl/Ml
CN[C@H](CC(C)C)C(=O)N[C@H]1C(=O)N[C@@H](CC(N)=O)C(=O)N[C@H]2C(=O)N[C@H]3C(=O)N[C@H](C(=O)N[C@H](C(=O)O)c4cc(O)cc(O)c4-c4cc3ccc4O)[C@H](O)c3ccc(c(Cl)c3)Oc3cc2cc(c3O[C@@H]2O[C@H](CO)[C@@H](O)[C@H](O)[C@H]2O[C@H]2C[C@](C)(N)[C@H](O)[C@H](C)O2)Oc2ccc(cc2Cl)[C@H]1O
4 μl/Ml

Item NC[C@H]1O[C@H](O[C@H]2[C@H](O)[C@@H](O[C@H]3O[C@H](CO)[C@@H](O)[C@H](N)[C@H]3O)[C@H](N)C[C@@H]2N)[C@H](N)C[C@@H]1O with Bifidobacterium longum KCTC3128 - Minimum inhibitory concentrations (MICs)?
>128 μl/Ml

* * *

Tested on: Bifidobacterium adolescentis SPM1604
Test Details: Antibiotics sensitivity, agar dilution MIC
Format: cell-based
Test Settings: strain SPM1604; Table 5
Property Measured: Minimum inhibitory concentrations (MICs)

For orientation, consider the following solved cases.
[H]/N=C(/N)N[C@H]1[C@H](O)[C@@H](O)[C@H](O[C@@H]2O[C@@H](C)[C@](O)(C=O)[C@H]2O[C@@H]2O[C@@H](CO)[C@H](O)[C@@H](O)[C@@H]2NC)[C@@H](N/C(N)=N\[H])[C@@H]1O
≦0.06 μl/Ml
CN(C)c1cc(NC(=O)CNC(C)(C)C)c(O)c2c1C[C@H]1C[C@H]3[C@H](N(C)C)C(O)=C(C(N)=O)C(=O)[C@@]3(O)C(O)=C1C2=O
≦0.06 μl/Ml
CN[C@H](CC(C)C)C(=O)N[C@H]1C(=O)N[C@@H](CC(N)=O)C(=O)N[C@H]2C(=O)N[C@H]3C(=O)N[C@H](C(=O)N[C@H](C(=O)O)c4cc(O)cc(O)c4-c4cc3ccc4O)[C@H](O)c3ccc(c(Cl)c3)Oc3cc2cc(c3O[C@@H]2O[C@H](CO)[C@@H](O)[C@H](O)[C@H]2O[C@H]2C[C@](C)(N)[C@H](O)[C@H](C)O2)Oc2ccc(cc2Cl)[C@H]1O
≦0.06 μl/Ml
CC(=O)NC[C@H]1CN(c2ccc(N3CCOCC3)c(F)c2)C(=O)O1
1 μl/Ml
NC[C@H]1O[C@H](O[C@H]2[C@H](O)[C@@H](O[C@H]3O[C@H](CO)[C@@H](O)[C@H](N)[C@H]3O)[C@H](N)C[C@@H]2N)[C@H](N)C[C@@H]1O
16 μl/Ml

# lookup: Minimum inhibitory concentrations (MICs) of CCC[C@@H]1C[C@@H](C(=O)N[C@@H]([C@H]2O[C@H](SC)[C@H](O)[C@@H](O)[C@H]2O)[C@H](C)Cl)N(C)C1
4 μl/Ml

Now the same for CCCCCCCCCC(=O)N[C@@H](Cc1c[nH]c2ccccc12)C(=O)N[C@H](CC(N)=O)C(=O)N[C@@H](CC(=O)O)C(=O)N[C@@H]1C(=O)NCC(=O)N[C@@H](CCCN)C(=O)N[C@@H](CC(=O)O)C(=O)N[C@H](C)C(=O)N[C@@H](CC(=O)O)C(=O)NCC(=O)N[C@H](CO)C(=O)N[C@@H]([C@H](C)CC(=O)O)C(=O)N[C@@H](CC(=O)c2ccccc2N)C(=O)O[C@@H]1C
4 μl/Ml

* * *

Test system: Bifidobacterium longum KCTC3128
Test Details: Antibiotics sensitivity, agar dilution MIC
Assay type: cell-based
Test Settings: strain KCTC3128; Table 5
Property Measured: Minimum inhibitory concentrations (MICs) (μl/Ml)
Response body: numeric value in μl/Ml, unit text excluded.

CCCCCCCCCC(=O)N[C@@H](Cc1c[nH]c2ccccc12)C(=O)N[C@H](CC(N)=O)C(=O)N[C@@H](CC(=O)O)C(=O)N[C@@H]1C(=O)NCC(=O)N[C@@H](CCCN)C(=O)N[C@@H](CC(=O)O)C(=O)N[C@H](C)C(=O)N[C@@H](CC(=O)O)C(=O)NCC(=O)N[C@H](CO)C(=O)N[C@@H]([C@H](C)CC(=O)O)C(=O)N[C@@H](CC(=O)c2ccccc2N)C(=O)O[C@@H]1C [DAP, daptomycin]
16
CCC[C@@H]1C[C@@H](C(=O)N[C@@H]([C@H]2O[C@H](SC)[C@H](O)[C@@H](O)[C@H]2O)[C@H](C)Cl)N(C)C1 [CLI, clindamycin]
4
[H]/N=C(/N)N[C@H]1[C@H](O)[C@@H](O)[C@H](O[C@@H]2O[C@@H](C)[C@](O)(C=O)[C@H]2O[C@@H]2O[C@@H](CO)[C@H](O)[C@@H](O)[C@@H]2NC)[C@@H](N/C(N)=N\[H])[C@@H]1O [STR, streptomycin]
128

# lookup: Minimum inhibitory concentrations (MICs) of CN(C)c1cc(NC(=O)CNC(C)(C)C)c(O)c2c1C[C@H]1C[C@H]3[C@H](N(C)C)C(O)=C(C(N)=O)C(=O)[C@@]3(O)C(O)=C1C2=O [TIG, tigecyclin]
0.5

* * *

Test system: Bifidobacterium adolescentis SPM1605
Test Details: Antibiotics sensitivity, agar dilution MIC
Assay type: cell-based
Test Settings: strain SPM1605; Table 5
Property Measured: Minimum inhibitory concentrations (MICs) (μl/Ml)
Response body: numeric value in μl/Ml, unit text excluded.

CN[C@H](CC(C)C)C(=O)N[C@H]1C(=O)N[C@@H](CC(N)=O)C(=O)N[C@H]2C(=O)N[C@H]3C(=O)N[C@H](C(=O)N[C@H](C(=O)O)c4cc(O)cc(O)c4-c4cc3ccc4O)[C@H](O)c3ccc(c(Cl)c3)Oc3cc2cc(c3O[C@@H]2O[C@H](CO)[C@@H](O)[C@H](O)[C@H]2O[C@H]2C[C@](C)(N)[C@H](O)[C@H](C)O2)Oc2ccc(cc2Cl)[C@H]1O
2
CC(=O)NC[C@H]1CN(c2ccc(N3CCOCC3)c(F)c2)C(=O)O1
4
NC[C@H]1O[C@H](O[C@H]2[C@H](O)[C@@H](O[C@H]3O[C@H](CO)[C@@H](O)[C@H](N)[C@H]3O)[C@H](N)C[C@@H]2N)[C@H](N)C[C@@H]1O
16
CCC[C@@H]1C[C@@H](C(=O)N[C@@H]([C@H]2O[C@H](SC)[C@H](O)[C@@H](O)[C@H]2O)[C@H](C)Cl)N(C)C1
4
[H]/N=C(/N)N[C@H]1[C@H](O)[C@@H](O)[C@H](O[C@@H]2O[C@@H](C)[C@](O)(C=O)[C@H]2O[C@@H]2O[C@@H](CO)[C@H](O)[C@@H](O)[C@@H]2NC)[C@@H](N/C(N)=N\[H])[C@@H]1O
32
CCCCCCCCCC(=O)N[C@@H](Cc1c[nH]c2ccccc12)C(=O)N[C@H](CC(N)=O)C(=O)N[C@@H](CC(=O)O)C(=O)N[C@@H]1C(=O)NCC(=O)N[C@@H](CCCN)C(=O)N[C@@H](CC(=O)O)C(=O)N[C@H](C)C(=O)N[C@@H](CC(=O)O)C(=O)NCC(=O)N[C@H](CO)C(=O)N[C@@H]([C@H](C)CC(=O)O)C(=O)N[C@@H](CC(=O)c2ccccc2N)C(=O)O[C@@H]1C
4

Let us examine a further case.
# lookup: Minimum inhibitory concentrations (MICs) of CN(C)c1cc(NC(=O)CNC(C)(C)C)c(O)c2c1C[C@H]1C[C@H]3[C@H](N(C)C)C(O)=C(C(N)=O)C(=O)[C@@]3(O)C(O)=C1C2=O
0.5
